Test system: MS2 coat protein
Assay Summary: apparent KD of MS2 coat protein; designed switch direction (-1 OFF switch, 1 ON switch): 1; higher = weaker reporter binding
Measurement Context: input ligand: none
Outcome Measure: apparent KD of MS2 coat protein (nM)
Dear colleague, please return just the value in nM, with no unit written.

>  <Input Sequence>
CUUCUUCCUUUUACAUGAGGAUCACCCAUGUUUUCAUAUUGAGAGGAUAUCGUAUUUGGAAACAUCGAGAAGGCUCAUUUGUAU [JR_SSNG3_Sub074] (Eterna round: R96, puzzle: Same State NG 3)

>  <Assayed Target>
MS2 coat protein

>  <Readout Unit>
nM

>  <apparent KD of MS2 coat protein>
223

$$$$

Q: For GGUAUUGACACAGGAUAUGCUUACGAAACGUAAGCAGAAGGGUGAACAUGAGGAUCACCCAUGUAGGUACCAGGGCGUGAGCCC [JL SSNG1 1.75] (Eterna round: R96, puzzle: Same State NG 1) , what is its reported apparent KD of MS2 coat protein?
Ans: 1470

Q: For UGAAUGGUGAUAGGAUAUACAUGAGGAAUCCUCGUAGAAGGAUCACGACAUGAGGAUCACCCAUGUAGCCGUCCGUAGACGGCA [JL SSNG1 1.23] (Eterna round: R96, puzzle: Same State NG 1) , what is its reported apparent KD of MS2 coat protein?
Ans: 242

Q: For CGCCAGAGAGCAGGAUAUGGGCCACGGCCUAAGGGCUGUGAACUCACAUGAGGAUCACCCAUGUCCCAGAAGGGCUCCUGGCUA [Temabeanan] (Eterna round: R96, puzzle: Same State NG 2) , what is its reported apparent KD of MS2 coat protein?
Ans: 1180

* * *

System: K4 kissing-loop RNA reporter;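 note: bound reporter read as fluorescence of individual clusters on recovered sequencing chips by microscopy, with normalized cluster intensities fitted with a binding model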
Assay Summary: apparent KD of K4 kissing-loop reporter; higher = weaker reporter binding
Measurement Context: Eterna round: R107; input ligand: none
Tag: class 1 if measured apparent KD of K4 kissing-loop reporter is not below 200 nM, class 0 if it is.

>  <Input Sequence>
AUUUAAUGUAUAGAUUAUAUACAUUAUUCAGAGGAUAUGCUUUGAAGCAGAAGGCUGGAUGUAGUGAUGUUGCAAUUUUAAUUUA [JR_SSFMNA_Sub006]

>  <Label>
class 1

$$$$
>  <Input Sequence>
AAAGAGUCCUGAGCCGAAGAAGAAGGCGGACGAGGACCGGUACGGCCGCCACUCGAAAGGAGUGCGGCUGAGUGAUGUUUGGCCG [Tryptophan A (C-G optomized)]

>  <Label>
class 1

$$$$
>  <Input Sequence>
AGCGUCCCUACGGCCGCCACUGGGAGUGAUGUUCCCAGGUUAGGCCUGAGGAUACUAUGGAUCGCCAGGACCGGGUAGCGACCAA [Zaarin]

>  <Label>
class 0

$$$$
>  <Input Sequence>
AACAUUUUCAGAAGGAGCGUGAAUUAUUCAUAAUUAUAUUAUACGAGUGAUGUUCGUAUUUCACAGGUAGGUCGCUGAUAUAGUA [#02 K4 Arginine B Same State]

>  <Label>
class 0

$$$$
>  <Input Sequence>
GCCGUAGAUUGAAGGAGCGGUUCAUCAAUUCAAGUCGAGUGAUGUUCGACGAUUCUCAGUAACCAGGUAGGUCGCAAUCUACGGC

>  <Label>
class 0

$$$$

Attention now shifts to the item below.
Q: Could you verify whether the entry AAGAGAUAGGGAGGAUAUGCCCUAUUGAGAACCGAGUGAUGUUCGGUAGGACAAAUAGUCCACAGGGUAGAAGGCCCACAUCACA [SS FNM B Tesla 2] shows apparent KD of K4 kissing-loop reporter of no less than 200 nM?
Ans: class 1

* * *

Tested on: MS2 coat protein
Assay Summary: apparent KD of MS2 coat protein; designed switch direction (-1 OFF switch, 1 ON switch): -1; higher = weaker reporter binding
Measurement Context: input ligand: microRNA oligo, concentration not stated
Tag: rule met if measured apparent KD of MS2 coat protein is not below 0.06 µM, rule not met if it is.

>  <Input Sequence>
ACAUGUAAUGCAGGAUAUUUUACACAUGAGGAUCACCCAUGUGACCAGAGGAAUUGCUAUGAGUAGAAGAAGGGUAUGUACAUG [Ex NG2 #56] (Eterna round: R96, puzzle: Exclusion NG 2)

>  <Label>
rule not met

$$$$
>  <Input Sequence>
CAUGAUUGGCGAGGAUAUUGACCUAGUUCGCGACGAGAAGGCGCCUGUCACAUGAGGAUCACCCAUGUGAAUCUGGUGAAAGAG [Ex NG1 #91] (Eterna round: R96, puzzle: Exclusion NG 1)

>  <Label>
rule not met

$$$$
>  <Input Sequence>
AAAAAAUUGAGAGGAUAUGGUGCCGAAACGGUGCUAGAAGGUUUUAUAAAAAAACAUGAGGAUCACCCAUGUUCAUGUAAAAAA [AK ExNG1-1] (Eterna round: R96, puzzle: Exclusion NG 1)

>  <Label>
rule not met

$$$$
>  <Input Sequence>
UAGCAUUGCCUUUGGUAGUGCUUUACAUGAGGAUCACCCAUGUAGGAUAUGGUAGGCAAAGCUUACCAGAAGGACAUGAUAAUU [Mat - Exclusion NG 3 - Mod of JL - D11] (Eterna round: R96, puzzle: Exclusion NG 3)

>  <Label>
rule not met

$$$$
>  <Input Sequence>
CAGUACUGAGGAUAUACAUGAGGAUCACCCAUGUGCUUCAGCUAGGAUACUAGCAUUAGUAGAAGGCAGUACUG [Fiskers Ex 3 828 mod 13] (Eterna round: R96, puzzle: Exclusion 3)

>  <Label>
rule not met

$$$$
>  <Input Sequence>
UAUAUAUAGUAAGGAUAUGUAUCUAUUUUAUAAACAGAAGGUACUGACAUGAGGAUCACCCAUGUUUUAGUGUGGGCAUGUAGA [JMF's solution 8] (Eterna round: R96, puzzle: Exclusion NG 1)

>  <Label>
rule met

$$$$
>  <Input Sequence>
CCGCAAAUGCAGGAUAUCGUAUCGGAAACGAUACGAGAAGGGUAAACAUGAGGAUCACCCAUGUUCCUUAACGG [Mat - Exclusion 6 - Eli Mod - D98] (Eterna round: R96, puzzle: Exclusion 6)

>  <Label>
rule not met

$$$$
>  <Input Sequence>
ACAUGAGGAUCACCCAUGUCCGGCUGGUCCGUCUCGGCUGUCGAGGAUAUAGCUCGGUGUCCGCGCUAGAAGGCGGGAGCCGGC [Aenatbe mod 83] (Eterna round: R96, puzzle: Exclusion NG 3)

>  <Label>
rule met

$$$$
>  <Input Sequence>
UUGUUGUAUGUAGGAUAUGCGUAUUGUUAUUAUGCAGAAGGACAUGAGGAUCACCCAUGUAUAUUAUUAUUAUAUAUUAUAUAU [Title] (Eterna round: R96, puzzle: Exclusion NG 1)

>  <Label>
rule not met

$$$$
>  <Input Sequence>
AUCAGCUCGUGAGGAUAUAUAUUAACAUGAGGAUCACCCAUGUAAGAUCAGCUUCGGCAGUUAAUAUAGAAGGCACGAGCUGAU [ENG2/14-A2] (Eterna round: R96, puzzle: Exclusion NG 2)

>  <Label>
rule met

$$$$

Q: Could you verify whether the entry GCGCACCUACCAAAAGGUAGGCCGACAUGAGGAUCACCCAUGUAGGAUAUCGAUUGCUUUGCAGUCGAGAAGGACAUGAUGCGC [JL ENG3 3.80 Mod 9] (Eterna round: R96, puzzle: Exclusion NG 3) shows apparent KD of MS2 coat protein of no less than 0.06 µM?
Ans: rule not met

Q: Could you verify whether the entry UAUAUAUAGUAAGGAUAUGUAACUAUUUUAUAAACAGAAGGUACUGACAUGAGGAUCACCCAUGUUUUAGUGUGGGCAUGUAGA [JMF's solution 29] (Eterna round: R96, puzzle: Exclusion NG 1) shows apparent KD of MS2 coat protein of no less than 0.06 µM?
Ans: rule met

Q: Could you verify whether the entry ACAUGAGGAUCACCCAUGUGCACGUAAUGGCUCAUGUAGAGUGAGGAUAUGCGUGACGAACGAGCGCAGAAGGCACAAGACUGG [Deportation 16 - Jieux - Exclusion NG 3] (Eterna round: R96, puzzle: Exclusion NG 3) shows apparent KD of MS2 coat protein of no less than 0.06 µM?
Ans: rule not met

Q: Could you verify whether the entry GCGGACUAGAACGUGAGUUCUGAGACAUGAGGAUCACCCAUGUAGGAUAUCGAUUCGUUUCGAAUCGAGAAGGGCAUAGUCCGC [JL denovo 12] (Eterna round: R96, puzzle: Exclusion NG 3) shows apparent KD of MS2 coat protein of no less than 0.06 µM?
Ans: rule not met

* * *

Tested on: MS2 coat protein
Assay Summary: apparent KD of MS2 coat protein; higher = weaker reporter binding
Measurement Context: Eterna round: R107; input ligand: theophylline 20 uM
# apparent KD of MS2 coat protein listing for each entry below
Dear colleague, please return just the value in µM, with no unit written.

Guide cases for apparent KD of MS2 coat protein, answers given:
>  <Input Sequence>
ACAUGAGGAUCACCCAUGUUCCUCAUUGAUACCAGUGAAUUUAGACGCCCUUGGCAGCGAGUUUUUUUAUAAGUUUUUUUUUUUU [6.J]

>  <apparent KD of MS2 coat protein [µM]>
0.913

$$$$
>  <Input Sequence>
AUUUUCGUAGGUUAAAGUUUAGAAACUGAAGGAGCGUGGUAUUACACAGGUAGGUCGCAGAUUUUACAUGAGGAUCACCCAUGUU [JR_ExcArginiA_Sub011]

>  <apparent KD of MS2 coat protein [µM]>
0.0254

$$$$
>  <Input Sequence>
AGUAUCAGUGGAAGGAGCGUCGCGAAUGCCACAUGAGGAUCACCCAUGUCGCCUUGAGCGCGACAGGUAGGUCGCCACGGUAGGC [SS-ArgB3]

>  <apparent KD of MS2 coat protein [µM]>
0.174

$$$$

Q: For AUUUACAUGGUCAUAUAUAUAUCGUCAGAUACCAGACUAGAUAUUGUCCCUUGGCAGCUGUUACAUGAGGAUCACCCAUGUUAUA [JR_Nu_ExcTheophyA_Sub020] , what is its reported apparent KD of MS2 coat protein?
Ans: 0.113

Q: For AGUUGACGAAAGUCAGCAACAUGAUCCGAAGGAGCGGGCGAAAGCCCAGGUAGGUCGCGGACAUGAGGAUCACCCAUGUCUCCUU [MAT - Exclusion Arginine A - Mod of Eli - D12] , what is its reported apparent KD of MS2 coat protein?
Ans: 0.0788

Q: For GCUGUAAGUGCAGAUACCAGCAAGUGAGGUUUCAUAUGACAUGAGGAUCACCCAUGUAUCUGCCCUUGGCAGCUGCACUUACAGC [#28 Same State - Theophylline B] , what is its reported apparent KD of MS2 coat protein?
Ans: 0.0242
